# Tested on: Staphylococcus aureus (Gram-positive)
# testProtocol: Microbial kill study, log reduction of Staphylococcus aureus
# Format: cell-based
# conditionInfo: 10 min
Examples of molecules with documented Log Reduction S. aureus (G+) 200 ppm, 10 min follow.
testReadout: Log Reduction S. aureus (G+) 200 ppm, 10 min

[
  {
    "molecule": "CCCCCCCCCC(=O)NC(CO)CCCNC(=N)N (stereo not shown) [C10 R O]",
    "resultValue": 6.30
  },
  {
    "molecule": "CCCCCCCCCCCCCC(=O)NC(CO)Cc1c[nH]cn1 (stereo not shown) [C14 H O]",
    "resultValue": 0.00
  },
  {
    "molecule": "CCCCCCCCCCCC(=O)NC(CO)CCCCN (stereo not shown) [C12 K O]",
    "resultValue": 4.60
  },
  {
    "molecule": "CCCCCCCCCCCC(=O)NC(CO)CCCNC(=N)N (stereo not shown) [C12 R O, lauryl argininol alcohol]",
    "resultValue": 6.24
  },
  {
    "molecule": "CCCCCCCC(=O)NC(CO)Cc1c[nH]cn1 (stereo not shown) [C8 H O]",
    "resultValue": 0.00
  },
  {
    "molecule": "CCCCCCCCCC(=O)NC(CO)Cc1c[nH]cn1 (stereo not shown) [C10 H O]",
    "resultValue": 0.00
  },
  {
    "molecule": "CCCCCCCCCCCC(=O)NC(CO)Cc1c[nH]cn1 (stereo not shown) [C12 H O]",
    "resultValue": 0.00
  },
  {
    "molecule": "CCCCCCCC(=O)NC(CO)CCCNC(=N)N (stereo not shown) [C8 R O]",
    "resultValue": 0.87
  },
  {
    "molecule": "CCCCCCCCCCCCCCCC(=O)NC(CO)CCCNC(=N)N (stereo not shown) [C16 R O]",
    "resultValue": 4.10
  },
  {
    "molecule": "CCCCCCCCCCCCCC(=O)NC(CO)CCCNC(=N)N (stereo not shown) [C14 R O]",
    "resultValue": 6.36
  }
]

---

# testProtocol: Surface tension at 1000 ppm
# Assay type: physicochemical
# conditionInfo: Table 9
# label = bin(measured Surface Tension 1000 ppm), where bins are lower: < 30 mN/m; middle: ≥ 30 mN/m and < 40 mN/m; upper: ≥ 40 mN/m

[
  {
    "compound": "CCCCCCCCCC(=O)NC(CO)CCCNC(=N)N (stereo not shown)",
    "qualitativeLabel": "lower"
  },
  {
    "compound": "CCCCCCCCCCCCCC(=O)NC(CO)Cc1c[nH]cn1 (stereo not shown)",
    "qualitativeLabel": "lower"
  },
  {
    "compound": "CCCCCCCCCCCC(=O)NC(CO)CCCCN (stereo not shown)",
    "qualitativeLabel": "lower"
  },
  {
    "compound": "CCCCCCCCCC(=O)NC(CO)Cc1c[nH]cn1 (stereo not shown)",
    "qualitativeLabel": "upper"
  },
  {
    "compound": "CCCCCCCCCCCC(=O)NC(CO)CCCNC(=N)N (stereo not shown)",
    "qualitativeLabel": "lower"
  },
  {
    "compound": "CCCCCCCCCCCCCCCC(=O)NC(CO)CCCNC(=N)N (stereo not shown)",
    "qualitativeLabel": "middle"
  },
  {
    "compound": "CCCCCCCC(=O)NC(CO)Cc1c[nH]cn1 (stereo not shown)",
    "qualitativeLabel": "upper"
  },
  {
    "compound": "CCCCCCCCCCCC(=O)NC(CO)Cc1c[nH]cn1 (stereo not shown)",
    "qualitativeLabel": "lower"
  },
  {
    "compound": "CCCCCCCC(=O)NC(CO)CCCNC(=N)N (stereo not shown)",
    "qualitativeLabel": "middle"
  }
]

Reference source for all entries: patent US20240301322A1
